System: OVCAR-3 ovarian
Assay: NCI-60 one-dose screen, 48 h
Conditions: 10 µM unless noted
This is part of a sample that, as a whole, favours compounds with a hit. Of some 83,000 tested, about 20% had one in any assay. Calls of active or inactive are those of the source. Rule for the calls: active = growth percent below 10; inactive = the rest.
Respond only with the outcome that fits, drawn from yes (1) for active, no (0) for inactive

Answered cases to consult:
>>> df
                                   compound  label_value
0  COC(=O)C1C2CC3c4[nH]c5cc(OC)ccc5c4CCN3CC2CC(OC2CCCCO2)C1OC (stereo not drawn)       no (0)
1  COC(=O)c1c2c(c(C)[n+]([O-])c1C)C(=O)C(NCc1ccc(O)cc1)=CC2=O      yes (1)

IN: Please let me know the test result on file for O=C1C(Br)=C(c2ccccc2)C(=O)C(Br)=C1c1ccccc1 .
OUT: no (0)

IN: Please let me know the test result on file for COc1cccc(Nc2nc(NCCO)c3ccccc3n2)c1 .
OUT: no (0)

IN: Please let me know the test result on file for N#CCCN1CCN(CCC#N)C1=S .
OUT: no (0)

----------
Test system: U251 CNS
Assay: NCI-60 one-dose screen, 48 h (100 = growth as untreated, 0 = no growth, -100 = all killed)
Settings: 10 µM unless noted
This is part of a sample that, as a whole, favours compounds with a hit. Of some 83,000 tested, about 20% had one in any assay.
Threshold 80%. growth below it: Met. growth at it or above: Not met.

compound	label.value
CC[Si](CC)(CC)OC1[C@@H](O[Si](CC)(CC)CC)[C@@H](CNC(=O)NC)O[C@H]1n1cnc2c(NC(=O)Nc3ccccc3)ncnc21 (stereo not given in full)	Not met
COc1ccc(/C=N\N2CCOCC2)cc1OC1CCCC1	Not met
O=C1c2ccccc2C(=O)c2c(Nc3ccc(CCO)cc3)ccc(O)c21	Met
CC(C)NCC(O)COc1ccc(CCOCC2CC2)cc1 (stereo not given)	Not met

IN: # check: growth < 80% for COc1ccc(NC(=O)c2ccc3c(c2)nc(-c2ccc(Cl)cc2)n3-c2cc(C(C)(C)C)[nH]n2)cc1
OUT: Not met

IN: # check: growth < 80% for Cc1ccc(S(=O)(=O)N(c2ccc(Cl)cc2)c2ccc(Br)cc2C(=O)O)cc1
OUT: Not met

IN: # check: growth < 80% for O=C1C(OCCOc2ccccc2)=C(OCCOc2ccccc2)C(=O)c2ccccc21
OUT: Met

IN: # check: growth < 80% for NC(=O)c1cc(Cl)ccc1NC(=O)COc1ccccc1
OUT: Met

IN: # check: growth < 80% for COc1ccc(-c2nc3sccn3c2/C=C/C(=O)c2cc(OC)c(OC)c(OC)c2)cc1OC
OUT: Met

IN: # check: growth < 80% for COC(=O)c1cc(-c2ccc(C)cc2)n(C(=O)CSc2nc3sc(C(N)=O)c(C)c3c(=O)n2Cc2ccccc2)n1
OUT: Not met

----------
Test system: RXF 393 renal
Assay: NCI-60 one-dose screen, 48 h (100 = growth as untreated, 0 = no growth, -100 = all killed)
Details: 10 µM unless noted
The panel holds about 83,000 compounds, 20% with a hit somewhere; the sample as a whole holds those more often.
Please provide measured growth for the entries that follow.
Answers are plain numbers, in %.

Worked examples follow.
>>> print(df.to_string())
                                   compound  experimental_system  result_number
0    CCN(CC)CCCNc1ccc(C)c2sc3ccccc3c(=O)c12        RXF 393 renal           1.02
1                     N#CCCN1CCN(CCC#N)C1=S        RXF 393 renal            124
2  CC1SC(c2ccc(Cl)cc2)N(CCc2cccs2)C1=O (stereo not given)        RXF 393 renal          -35.7
3  c1ccc2cc(Cn3c(-c4ccc5ccccc5c4)[n+](Cc4ccc5ccccc5c4)c4ccccc43)ccc2c1        RXF 393 renal            -65
4  COc1cc(/C=C/c2cc(/C=C/c3ccc(O)c(OC)c3)n(-c3ccccc3)n2)ccc1O        RXF 393 renal            -70

Please give growth, item by item, for the list that follows.
1. Cn1c2ccccc2c2nn(C(=O)c3ccccc3)c(=O)nc21
2. O=C(COc1ccc(/C=C2\CSc3ccccc3C2=O)cc1)c1ccc(Cl)cc1
3. COC(=O)[C@@H]1CCCN1C(=O)[C@@H]1CCCN1C(=O)[C@@H](Cc1c[nH]c2ccccc12)NC(=S)Nc1cc(C(F)(F)F)cc(C(F)(F)F)c1
4. O=C(COc1cccc(/C=C2\COc3ccccc3C2=O)c1)c1ccccc1
5. O=c1oc2ccccc2cc1-c1csc(N=Nc2c(O)[nH]c3ccc(Cl)cc23)n1

OUT:
101
90.4
47.5
69.5
129

Data origin, for the record: PubChem BioAssay (NCI)
